- Assay system: RYamide receptor (Drosophila melanogaster)
- Sequence (whole entry): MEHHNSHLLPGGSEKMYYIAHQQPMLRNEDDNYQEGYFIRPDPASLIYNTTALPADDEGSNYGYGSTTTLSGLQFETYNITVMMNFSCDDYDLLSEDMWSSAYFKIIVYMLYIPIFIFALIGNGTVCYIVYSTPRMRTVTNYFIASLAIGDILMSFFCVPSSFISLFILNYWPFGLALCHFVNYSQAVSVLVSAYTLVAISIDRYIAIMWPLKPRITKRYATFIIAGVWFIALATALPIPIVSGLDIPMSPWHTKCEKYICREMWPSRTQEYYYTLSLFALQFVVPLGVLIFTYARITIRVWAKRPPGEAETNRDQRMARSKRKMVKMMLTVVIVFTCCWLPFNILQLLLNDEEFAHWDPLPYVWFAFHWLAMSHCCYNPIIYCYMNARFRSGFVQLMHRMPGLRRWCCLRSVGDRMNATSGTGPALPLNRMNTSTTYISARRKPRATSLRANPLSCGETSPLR
- Method notes: Partial agonist activity at Drosophila melanogaster RYamide receptor expressed in wild type CHO-K1 cells assessed as increase in calcium level at 5 uM after 20 secs by luminescence assay relative to RYamide-1
- Assay type: cell-based
Listed next: entries and their corresponding Activity.

Compound | Activity / %
Cc1noc(C)c1CN1CC(Cc2ccccc2)NC(=O)c2nn(CCC3CCN(C(=O)OC(C)(C)C)CC3)cc21 (centres undefined) | 40
CC(C)CN1C[C@H](CCCCN)N=C(SCCC(N)=O)c2nn(CC(C)C)cc21 | 40
CC(C)CN1C[C@H](CCCCN)NC(=S)c2nn(CC(C)C)cc21 | 40
CC(C)CN1C[C@@H](CCCCN)N=C(SCCC(=O)NN)c2nn(CC(C)C)cc21 | 40
